All figures here come from the EternaBench riboswitch data.

- Test system: MS2 coat protein
- Method description: apparent Kd, MS2 coat protein; higher = weaker binding; RNA-MaP array; FMN 200 µM where present
- Condition: designed as: OFF switch for flavin mononucleotide; no ligand
Readout type: apparent Kd (nM)
One number for each entry, in nM.

1. GUCCAACAUGAGGAUCACCCAUGUGAGGAUAUGCGAAUUUCAUCAAAAGAUGAAAUUUGCAGAAGGCACAGGAC = 20.2
2. UAUUAAUACGAAGGAUAUGGUUACAUGAGGAUCACCCAUGUAUGUAUUUUGAUCUAAUAAUUUAACCAGAAGGUCGAAUAUAAA = 40.6
3. UGACCCAUGACAUGAGAUGACAUGAGGAUCACCCAUGUUUACAAGGAUAUGUUGGUCAAAGGUCGGCAGAAGGUGUAAUGGGAU = 49
4. GGUGCGUUUGUGAGGAUAUGCUGGUCCUUGGAUCAGCAGAAGGCACAUGAGGAUCACCCAUGUGGUGUCCCUCC = 168
5. CGACAUUUAGGAUAUACGGUUAUUGAGGUUUUUGUUAGUCGACAUGAGGAUCACCCAUGUAGAAGGAAAUGAGU = 34.6

# batch: return apparent Kd for each of the 3 sequences below
1. UUGAUGUCAUCAGGAUAUAGUAUUUAAGACAUAUCUUCUUUCAAACAUGAGGAUCACCCAUGUCGCUAGAAGGGAUGAAUGAUU
2. AAACUGUGAGGAUAUGGUGAGUAGUGCCUGAGCGCUGCUCACCAGAAGGCACAUGAGGAUCACCCAUGUAUAAA
3. CGAUAAUAUAGUUAUCCGUAGCGAACAUGAGGAUCACCCAUGUAGGAUAUGUUACUAAACUAGUAACAGAAGGACAUGAGUCUU

[16.6, 25.5, 28.5]

----------
So I've got a bunch of sequences here, and I need their apparent Kd values.
- Tested on: MS2 coat protein
- Method description: apparent Kd, MS2 coat protein; higher = weaker binding; RNA-MaP array; FMN 200 µM where present
- Condition: designed as: OFF switch for flavin mononucleotide; no ligand
Answers are plain numbers, in nM.

# batch: return apparent Kd for each of the 8 sequences below
1. UGAGCCUCGUGAGGAUAUACAUGAGGAUCACCCAUGUAAUAGGAUGAACGGUGGAAACACCGAAUGUAGAAGGCACGAGGCUCA
2. GUGGUGCAUAUACGUGGAGGUACAUGAGGAUCACCCAUGUAAGAGGAUAUGCGGAUACUAGCUCAGCAGAAGGCUUACAAAUGA
3. CUUGUGUUAGGAUAUGCGUUUCCGGUGCGUCACUGGAUCUGGCAGAAGGGACAUGAGGAUCACCCAUGUUUGGC
4. GUGAGUAGUCAGGAUAUGCUGUACAAAAGUACAGCAGAAGGGAUUACAUGAGGAUCACCCAUGUUUACCUCAUG
5. UGGCGUUGAGGAUAUACAUUGAAUAAGAUUCAUGUAAAACUACAUGAGGAUCACCCAUGUAGAAGGCAAUGCCU
6. UCUGGUCAAGGAUAUGCGUAAUGUGUUACGGCACGAGGUCUACAUGAGGAUCACCCAUGUAGAAGGUGAUCAGA
7. GGAUCACAAAGUGAUCCAAUACGAACAUGAGGAUCACCCAUGUAGGAUAUGCUACUCAAAGAGUAGCAGAAGGACAUGUGCCUU
8. ACAUGUCGUGAGAAGGACGGCGUGCAUAGCGCCGUAGGAUAUCAAGACAUGAGGAUCACCCAUGUACGCGUGUCCAGCCGUGCU

82.2
13.1
38.7
574
16.9
18
35.4
65.2

# batch: return apparent Kd for each of the 2 sequences below
1. UUGAAGUCAUCAGGAUAUAGUAUAAAAGACAUAUAUUUUUUCAAACAUGAGGAUCACCCAUGUCGCUAGAAGGGAUUAUAGAUU
2. CUCGAGUUAGGAUAUCGAACGUAACAAGCGGGAACUCCCGCCGAGAAGGAACAUGAGGAUCACCCAUGUGAAAA

47.3
23.2
